The measurements presented in this section are drawn from PubChem BioAssay (NCI).

# Test system: UO-31 renal
# measurement description: NCI-60 one-dose screen, 48 h
# assay setup: 10 µM unless noted
This is part of a sample that, as a whole, favours compounds with a hit. Of some 83,000 tested, about 20% had one in any assay. Active and inactive are the calls of the source. Rule for the calls: active = growth percent below 10; inactive = the rest.
Outcome codes: active, inactive

>>> category_label("O=C1C(Cl)=C(NCCCCCCNC2=C(Cl)C(=O)c3ccccc3C2=O)C(=O)c2ccccc21")
"inactive"
>>> category_label("CN(/C(N)=N/N=C/c1c2ccccc2cc2ccccc12)C1CCCCC1")
"inactive"
>>> category_label("Cc1[nH]c(C(=O)Nc2ccc(C(=O)N3CCN(c4cc5c(cc4F)c(=O)c(C(=O)O)cn5C4CC4)CC3)cc2OC(C)C)c(Cl)c1Cl")
"inactive"
>>> category_label("Nc1n[nH]c2ccc([C@H]3[C@@H]4C5CCC(C5)[C@@H]4c4c(ccc5[nH]ncc45)N3S(=O)(=O)C3CC3)cc12 (stereo partly drawn)")
"inactive"
>>> category_label("COc1cc2c(cc1OCCCN1CCN(CCCOc3cc4c(cc3OC)C(=O)N3CC(F)(F)C[C@H]3C=N4)CC1)N=C[C@@H]1CC(F)(F)CN1C2=O")
"inactive"
>>> category_label("C=CCOC(=O)Nc1cccn([C@H](Cc2ccccc2)C(=O)NCCC(C)C)c1=O")
"inactive"
>>> category_label("C1CCC([PH+](C2CCCCC2)C2CCCCC2[PH+](C2CCCCC2)C2CCCCC2)CC1.[Au].[CH-]1CCCCC1C1CCCC[N-]1 (stereo not drawn)")
"active"
>>> category_label("Fc1cccc(Oc2ccc(Nc3ncnc4ccc(OCCCN5CCOCC5)cc34)cc2Cl)c1")
"inactive"
>>> category_label("O=S(=O)(NCCNc1nccc(-c2c(-c3ccc(F)c(O)c3)nc3sccn23)n1)c1ccc(O)cc1")
"active"
>>> category_label("O=C1c2ccc3c4c5ccc(c24)C(=O)N1CCCOCCCCOCCCNCc1ccc(cc1)CNCCCOCCCCOCCCN(C3=O)C5=O")
"inactive"
>>> category_label("NC(=O)c1c(NC(=O)c2ccc3ccccc3c2)sc2c1CCC(=O)C2")
"inactive"
>>> category_label("COC(=O)/C=C1/SC(=Nc2ccc(C(F)(F)F)cc2)N(CCc2c[nH]c3ccc(O)cc23)C1=O")
"active"
>>> category_label("N#CC1=C(N)Oc2c(sc3c(Br)cccc23)C1c1ccc(Cl)cc1 (stereo not drawn)")
"inactive"
>>> category_label("Cc1ccc(-c2nc(N3CCCNCC3)c3oc(-c4ccc(C)cc4)nc3n2)cc1")
"inactive"
>>> category_label("CCOC(=O)[C@@H]1CSC(CC)=C(C(=O)O)N1")
"inactive"
>>> category_label("O=S(=O)(Nc1ccc(Cl)c(C(F)(F)F)c1)c1ccc(-c2cnc(C3CC3)o2)cc1")
"inactive"
>>> category_label("CC1CCc2c(C(=O)Nc3ncc(Cc4cccc([N+](=O)[O-])c4)s3)csc2C1 (stereo not drawn)")
"inactive"
>>> category_label("O=C1NC(=C(Cl)Cl)/C(=N\\S(=O)(=O)NCc2ccccc2)N1")
"inactive"
